Test system: NCI-H226 lung
Assay: NCI tumour cell line growth inhibition, 48 h
Please mark 1 if the recorded TGI is equal to or greater than 20 µM, and -1 if it falls below.

[[record]]
molecule = "Cc1cc2cccc(Cl)c2nc1C(=O)c1ccccc1"
category_label = 1

[[record]]
molecule = "O=C(O/N=C1/CCC/C1=C\\c1ccccc1)c1ccc([N+](=O)[O-])cc1"
category_label = 1

[[record]]
molecule = "C[C@]12CCC(=O)C=C1CC[C@@H]1C2CC[C@]2(C)NC(=O)C(C#N)CC12 (stereo not given in full)"
category_label = 1

[[record]]
molecule = "Cc1ccc(C(=O)Nc2ccc(CP(=O)(O)O)cc2)cc1NC(=O)c1cccc(NC(=O)Nc2cccc(C(=O)Nc3cc(C(=O)Nc4ccc(CP(=O)(O)O)cc4)ccc3C)c2)c1"
category_label = 1

[[record]]
molecule = "Cc1nc(Cl)c(CBr)c(Cl)n1"
category_label = -1

[[record]]
molecule = "COc1ccc(-n2cc(-c3ccc(OC)c(OC)c3)[nH]c2=S)cc1Cl"
category_label = 1

[[record]]
molecule = "Cc1cccc(N(CCC#N)S(=O)(=O)c2ccccc2)c1"
category_label = 1

[[record]]
molecule = "O=C1/C(=C/c2ccc(F)cc2)CNC/C1=C\\c1ccc(F)cc1"
category_label = -1

[[record]]
molecule = "CC1(C)N=C(N)N=C(N)N1c1ccc(CCCCc2ccc(S(=O)(=O)F)cc2Cl)c(Cl)c1"
category_label = 1

[[record]]
molecule = "CCN1CCN(c2nc(NCCNc3ccnc4cc(Cl)ccc34)c3ccccc3n2)CC1"
category_label = -1

[[record]]
molecule = "N#Cc1cnn2ccn(C3OC(COC(=O)c4ccccc4)C(OC(=O)c4ccccc4)C3OC(=O)c3ccccc3)c12 (stereo not given)"
category_label = 1

[[record]]
molecule = "OCc1c(-c2cccc3ccccc23)sc(-c2cccc3ccccc23)c1CO"
category_label = 1

[[record]]
molecule = "CN1C(=O)CN(NC(=O)C2=C(O)c3ccc(Br)cc3S(=O)(=O)N2)C1=S"
category_label = 1

[[record]]
molecule = "c1ccc(-c2nnc(-c3nn(-c4ccccc4)c4nc5ccccc5nc34)o2)cc1"
category_label = 1

[[record]]
molecule = "CCOC(=O)C1C(=O)CC(O)(c2ccccc2)C(C(=O)OCC)C1c1ccc(OC)cc1 (stereo not given)"
category_label = 1

[[record]]
molecule = "CCCCCCCCCCCCCCC1OC(=O)c2ccccc21 (stereo not given)"
category_label = 1

[[record]]
molecule = "CCOC(=O)c1cc(-c2ccc([N+](=O)[O-])cc2)n(-c2ccc(C(=O)O)c(O)c2)c1C"
category_label = 1

[[record]]
molecule = "CCCNC(=O)OCc1c(COC(=O)NCCC)c(-c2ccc(Cl)c(Cl)c2)n2c1CCC2"
category_label = -1


====

# Lookup of reported TGI keyed by entry
System: SF-295 CNS
Test: NCI tumour cell line growth inhibition, 48 h
property.label: TGI

[[record]]
molecule = "N#Cc1cnn2ccn(C3OC(COC(=O)c4ccccc4)C(OC(=O)c4ccccc4)C3OC(=O)c3ccccc3)c12 (centres undefined)"
measurement_target = "SF-295 CNS"
result = "> 21.5 µM"

[[record]]
molecule = "COc1ccc(-n2cc(-c3ccc(OC)c(OC)c3)[nH]c2=S)cc1Cl"
measurement_target = "SF-295 CNS"
result = "> 100 µM"

[[record]]
molecule = "CC(C)CCNC(=O)c1ccc(CNC(=O)/C=C/c2ccc(OCc3ccccc3)cc2)cc1"
measurement_target = "SF-295 CNS"
result = "> 100 µM"

[[record]]
molecule = "COc1ccc(NC2Oc3cc4c(cc3C(c3cc(OC)c(OC)c(OC)c3)C2C)OCO4)cc1 (centres undefined)"
measurement_target = "SF-295 CNS"
result = "0.971 µM"

[[record]]
molecule = "O=S(=O)(O)C(O)/C=C/c1ccccc1 (centres undefined)"
measurement_target = "SF-295 CNS"
result = "> 100 µM"

[[record]]
molecule = "O=C(O)CNC(=O)c1ccc([As](=O)(O)O)cc1"
measurement_target = "SF-295 CNS"
result = "> 100 µM"

[[record]]
molecule = "CC(C)c1c(P(=O)(c2ccccc2)c2ccccc2)n(C)c2ccccc12"
measurement_target = "SF-295 CNS"
result = "> 100 µM"

[[record]]
molecule = "CCN1CCN(c2nc(NCCNc3ccnc4cc(Cl)ccc34)c3ccccc3n2)CC1"
measurement_target = "SF-295 CNS"
result = "2.74 µM"

[[record]]
molecule = "O=C1c2ccccc2-c2c1c1cc3c(cc1c(=O)n2CCCCl)OCO3"
measurement_target = "SF-295 CNS"
result = "46.8 µM"

[[record]]
molecule = "COc1cc([C@@H]2c3cc4c(cc3C[C@H]3COC(=O)[C@@H]32)OCO4)cc(OC)c1OC"
measurement_target = "SF-295 CNS"
result = "0.00833 µM"

[[record]]
molecule = "CCCNC(=O)OCc1c(COC(=O)NCCC)c(-c2ccc(Cl)c(Cl)c2)n2c1CCC2"
measurement_target = "SF-295 CNS"
result = "12.3 µM"

[[record]]
molecule = "CC(=O)/C(=C/n1c(=S)sc2ccccc21)C(=O)Nc1ccccc1C"
measurement_target = "SF-295 CNS"
result = "> 100 µM"

[[record]]
molecule = "CO/N=C1/c2sccc2[C@H](NC(=O)CNC(=O)OC(C)(C)C)[C@@H]1O"
measurement_target = "SF-295 CNS"
result = "> 100 µM"

[[record]]
molecule = "Cc1oc2nc(N(C)C)n3nnnc3c2c1C"
measurement_target = "SF-295 CNS"
result = "> 100 µM"

[[record]]
molecule = "NCCCC(N)C(=O)O (centres undefined)"
measurement_target = "SF-295 CNS"
result = "> 100 µM"

[[record]]
molecule = "CCOC(=O)C1CC(O)C(=O)N1C (centres undefined)"
measurement_target = "SF-295 CNS"
result = "> 100 µM"

[[record]]
molecule = "Cc1nc(Cl)c(CBr)c(Cl)n1"
measurement_target = "SF-295 CNS"
result = "22.9 µM"

[[record]]
molecule = "COc1ccc(CN2CCCC(C(=O)c3ccc(C(F)(F)F)cc3)C2)c(O)c1 (centres undefined)"
measurement_target = "SF-295 CNS"
result = "45.9 µM"

[[record]]
molecule = "CC(=O)OCC1OC(n2c(=S)[nH]c(-c3ccccc3)c(C#N)c2=O)C(OC(C)=O)C(OC(C)=O)C1OC(C)=O (centres undefined)"
measurement_target = "SF-295 CNS"
result = "> 100 µM"

[[record]]
molecule = "O=C1C(Br)=Cc2c(Cl)sc(Cl)c21"
measurement_target = "SF-295 CNS"
result = "> 66.4 µM"

[[record]]
molecule = "c1ccc(-c2nnc(-c3nn(-c4ccccc4)c4nc5ccccc5nc34)o2)cc1"
measurement_target = "SF-295 CNS"
result = "> 100 µM"

[[record]]
molecule = "Nc1ncnc2c1ncn2C(=O)NC12CC3CC(CC(C3)C1)C2"
measurement_target = "SF-295 CNS"
result = "> 100 µM"

[[record]]
molecule = "Cc1c(N2C(=O)/C(=C\\c3ccccc3O)N=C2c2ccccc2)c(=O)n(-c2ccccc2)n1C"
measurement_target = "SF-295 CNS"
result = "78.6 µM"

[[record]]
molecule = "O=C1C(Cl)N(c2ccccc2)C1c1c[nH]c2ccccc12 (centres undefined)"
measurement_target = "SF-295 CNS"
result = "> 100 µM"

[[record]]
molecule = "CCOC(=O)C(=O)N1C(C)=C(C(=O)OCC)CC(C(=O)OCC)=C1C"
measurement_target = "SF-295 CNS"
result = "> 100 µM"

[[record]]
molecule = "COC(=O)C(CC(=O)c1cc2c(cc1I)OCO2)Cc1cc(OC)c(OC)c(OC)c1I (centres undefined)"
measurement_target = "SF-295 CNS"
result = "> 100 µM"

[[record]]
molecule = "CN(C)c1ccc2c(c1)oc(=O)c1ccccc12"
measurement_target = "SF-295 CNS"
result = "48.2 µM"

[[record]]
molecule = "NC1(CCCCCCCCCCC(=O)O)CNCCNCCNCCNC1"
measurement_target = "SF-295 CNS"
result = "> 100 µM"

[[record]]
molecule = "CC(=O)OCCc1cccnc1/C=N/O"
measurement_target = "SF-295 CNS"
result = "> 100 µM"

[[record]]
molecule = "COC(=O)c1c(OC)cccc1C(=O)O"
measurement_target = "SF-295 CNS"
result = "> 100 µM"

[[record]]
molecule = "CC1=C(CCCOC(=O)NCCCl)C2=C(C)C3(CC3)[C@@](C)(O)C(=O)C2=C1"
measurement_target = "SF-295 CNS"
result = "7.33 µM"

[[record]]
molecule = "O=C1CC[C@H]2CNC(=O)C[C@H]2C1"
measurement_target = "SF-295 CNS"
result = "> 100 µM"

[[record]]
molecule = "CCOC(=O)C1C(=O)CC(O)(c2ccccc2)C(C(=O)OCC)C1c1ccc(OC)cc1 (centres undefined)"
measurement_target = "SF-295 CNS"
result = "17.5 µM"

[[record]]
molecule = "COc1cc2c(c(O)c1C)C(=O)C(Cl)=CC2=O"
measurement_target = "SF-295 CNS"
result = "34.4 µM"

[[record]]
molecule = "CC(=O)/C=C/c1cccc(N=S)c1"
measurement_target = "SF-295 CNS"
result = "54.3 µM"

[[record]]
molecule = "O=c1[nH]c(=O)n(C2CC(O)C(CO)O2)cc1C#Cc1c(F)c(F)c(F)c(F)c1F (centres undefined)"
measurement_target = "SF-295 CNS"
result = "> 100 µM"

[[record]]
molecule = "COC(=O)CCCC(=O)C(=Nc1c(Cl)cccc1Cl)NNc1ccc(Cl)cc1"
measurement_target = "SF-295 CNS"
result = "> 100 µM"

[[record]]
molecule = "C[C@]12CCC(=O)C=C1CC[C@@H]1C2CC[C@]2(C)NC(=O)C(C#N)CC12 (some centres undefined)"
measurement_target = "SF-295 CNS"
result = "> 100 µM"

[[record]]
molecule = "Clc1ccc(Cc2nc3cc4ccccc4cc3[nH]2)cc1"
measurement_target = "SF-295 CNS"
result = "30 µM"

[[record]]
molecule = "CCOC(=O)c1cc(-c2ccc([N+](=O)[O-])cc2)n(-c2ccc(C(=O)O)c(O)c2)c1C"
measurement_target = "SF-295 CNS"
result = "19.6 µM"

[[record]]
molecule = "CCN(CC)CCCn1c(=O)c2cccnc2n2c3c(=O)n(C)c(=O)n(C)c3nc12"
measurement_target = "SF-295 CNS"
result = "> 100 µM"

[[record]]
molecule = "CCOc1ccc2nc(NC(=O)/C(CC(=O)CC(C3=C(O)c4ccccc4CC3=O)c3ccccc3)=N\\O)sc2c1 (centres undefined)"
measurement_target = "SF-295 CNS"
result = "> 100 µM"

[[record]]
molecule = "O=[n+]1c(CBr)c(CBr)n([O-])c2ccccc21"
measurement_target = "SF-295 CNS"
result = "36 µM"

[[record]]
molecule = "CC1(C)N=C(N)N=C(N)N1c1ccc(CCCCc2ccc(S(=O)(=O)F)cc2Cl)c(Cl)c1"
measurement_target = "SF-295 CNS"
result = "192 µM"

